From: patent US7745436B2

- assay.notes: Solubility determination in water (vortex, sonication at ~50° C, HPLC of supernatant)
- Type: physicochemical
- setup.conditions: water; vortexed and sonicated ~5-10 min at ~50° C; HPLC
Examples of compounds with documented Solubility follow.
Supply the numeric figure in mg/mL, leaving out any unit text.

>>> assay_result("C(=NNc1cc(N2CCOCC2)nc(OCCc2ccccn2)n1)c1c[nH]c2ccccc12.CS(=O)(=O)O.CS(=O)(=O)O [{[(2)(2H^+)]^2+•[2(CH3SO3^−)]^2−}]")
454
>>> assay_result("Cc1cccc(C=NNc2cc(N3CCOCC3)nc(OCCc3ccccn3)n2)c1.O=[N+]([O-])O.O=[N+]([O-])O [{[(1)(2H^+)]^2+•[2(NO3^−)]^2−}]")
83.4
>>> assay_result("Cc1cccc(C=NNc2cc(N3CCOCC3)nc(OCCc3ccccn3)n2)c1.Cl.Cl [{[(1)(2H^+)]^2+•[2(Cl^−)]^2−}]")
213

Give recorded Solubility. Cc1cccc(C=NNc2cc(N3CCOCC3)nc(OCCc3ccccn3)n2)c1.Cl [{[(1)(2H^+)]^1+•[1(Cl^−)]^1−}]
12.6

###

Examples of compounds with documented melting point follow.

Give recorded melting point. C(=NNc1cc(N2CCOCC2)nc(OCCc2ccccn2)n1)c1c[nH]c2ccccc12
160 to 165 °C

Give recorded melting point. C(=NNc1nc(OCCc2ccccn2)nc(N2CCOCC2)n1)c1c[nH]c2ccccc12
158 to 161 °C

Give recorded melting point. CN(N=Cc1c[nH]c2ccccc12)c1cc(N2CCOCC2)nc(OCCc2ccccn2)n1
130 to 140 °C

Give recorded melting point. Cc1cccc(C=NNc2nc(OCCc3ccccn3)nc(N3CCOCC3)n2)c1
143 to 147 °C

###

- assay.notes: Solubility determination in water (vortex, sonication at ~50° C, HPLC of supernatant)
- Format: physicochemical
- setup.conditions: water; vortexed and sonicated ~5-10 min at ~50° C; HPLC
Examples of compounds with documented Solubility follow.
Supply the numeric figure in mg/mL, leaving out any unit text.

>>> assay_result("CN(N=Cc1c[nH]c2ccccc12)c1cc(N2CCOCC2)nc(OCCc2ccccn2)n1.CS(=O)(=O)O.CS(=O)(=O)O [{[(3)(2H^+)]^2+•[2(CH3SO3^−)]^2−}]")
306
>>> assay_result("CS(=O)(=O)O.Cc1cccc(C=NNc2cc(N3CCOCC3)nc(OCCc3ccccn3)n2)c1 [{[(1)(1H^+)]^1+•[1(CH3SO3^−)]^1−}]")
52.0

With those in mind, consider the next compound.
Give recorded Solubility. CS(=O)(=O)O.CS(=O)(=O)O.Cc1cccc(C=NNc2cc(N3CCOCC3)nc(OCCc3ccccn3)n2)c1 [{[(1)(2H^+)]^2+•[2(CH3SO3^−)]^2−}]
831
